Values were extracted from PubChem BioAssay (NCI).

Test system: HT29 colon
Experiment: NCI-60 one-dose screen, 48 h (100 = growth as untreated, 0 = no growth, -100 = all killed)
Details: 10 µM unless noted
Procedure: Growth inhibition of the HT29 human tumor cell line is measured as a screen for anti-cancer activity. Cells are grown in 96 well plates and exposed to the test compound for 48 hours. Compounds are tested at a single concentration, which is 10^-5 M for most compounds. The reported endpoint is percent growth (GI% or GIPRCNT), where numbers from 0 - 100% represent growth inhibition, and numbers from -100% - 0 represent cell death. For example, a value of 40 represents 60% growth inhibition. […]
About 83,000 compounds went through this panel and 20% of them were active in at least one assay; those are over-represented in the sample as a whole.
EXPERIMENTAL_ENDPOINT: growth (%)
I only need the number, in %, no unit after it.

[
  {
    "COMPOUND": "Cc1ccc(-c2nnc(SCc3ccc(O)c4ncccc34)o2)cc1",
    "VALUE_UNITS": "%",
    "growth": 79
  },
  {
    "COMPOUND": "Nc1ncc(-c2ccc3ncnc(Nc4cccc(Cl)c4F)c3c2)cn1",
    "VALUE_UNITS": "%",
    "growth": 78.9
  },
  {
    "COMPOUND": "O=C(Nc1nonc1-c1ccccc1)c1ccc(C(F)(F)F)cc1",
    "VALUE_UNITS": "%",
    "growth": 103
  },
  {
    "COMPOUND": "O=C(/C=C/c1ccc(F)cc1)c1ccc(O)cc1",
    "VALUE_UNITS": "%",
    "growth": 93.2
  },
  {
    "COMPOUND": "O=C(NNc1nc2cc(F)c(F)cc2n2c(CN3CC4CNCC4C3)ccc12)c1ncccn1 (centres undefined)",
    "VALUE_UNITS": "%",
    "growth": 23.5
  },
  {
    "COMPOUND": "CCNC(=O)N1CCc2cc(OC)c(OCCc3ccc(OC)nc3)cc2C1c1ccc(C)cc1C (centres undefined)",
    "VALUE_UNITS": "%",
    "growth": 1.6
  },
  {
    "COMPOUND": "CCCCCc1ccc(S(=O)(=O)Nc2cccc(-c3csc(NC(=O)CCCCCN4CCN(C)CC4)n3)c2)cc1",
    "VALUE_UNITS": "%",
    "growth": 7.36
  },
  {
    "COMPOUND": "CC(C)c1ccc(NCc2cn(-c3ccc(C(=O)O)cc3)nc2-c2cc(C(F)(F)F)cc(C(F)(F)F)c2)cc1",
    "VALUE_UNITS": "%",
    "growth": 80.9
  }
]

input: Form field: growth recorded for Cc1cccc2c3c(sc12)C(c1ccc(F)cc1)C(C#N)=C(/N=C/c1ccc(Cl)cc1)O3 (centres undefined) with HT29 colon (enter value)
output: -28.5

input: growth of Cn1ccnc1C(=O)/C=C/c1ccc(CNC(=O)c2ccc(F)cc2)cc1 on HT29 colon?
output: 10.2

input: HT29 colon / growth / COc1ccccc1-n1cc(C#N)c(N)c1C(=O)c1ccc(Br)cc1 : value?
output: 44.6

input: # query: growth | item Clc1nc2ccccc2nc1-c1nnc(C2CCCCC2)o1 | system: HT29 colon
output: 109

input: What measured growth is associated with CCCCCc1ccc(S(=O)(=O)Nc2cccc(-c3csc(NC(=O)CN4CCN(CCO)CC4)n3)c2)cc1 on HT29 colon?
output: 35.6
